B1: Azoarcus group I ribozyme (parent)
chain: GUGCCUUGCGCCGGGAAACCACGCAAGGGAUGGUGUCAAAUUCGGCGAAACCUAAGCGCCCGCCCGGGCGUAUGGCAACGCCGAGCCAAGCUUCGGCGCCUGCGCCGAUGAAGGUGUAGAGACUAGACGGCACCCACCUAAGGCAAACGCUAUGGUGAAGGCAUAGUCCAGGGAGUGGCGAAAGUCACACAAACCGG

# Variants of: B1
# experimental.details: reverse-splicing fitness (ratio to wild type); higher = more active; in vitro selection; Mg2+ level not given
# if value of reverse-splicing fitness reaches 0.009, tag Condition met; if it stays below, tag Condition not met

mutation.notation: A145C C169U U176G
class.label: Condition met
--
mutation.notation: A111U C150U C169A U176C
class.label: Condition met
--
mutation.notation: C82U A120G C150A C169U U176C
class.label: Condition met
--
mutation.notation: C82G A111U A120U A145C C150U C169G
class.label: Condition not met
--
mutation.notation: C82U A111G A120U A145G C169G
class.label: Condition not met
--
mutation.notation: A111C C150U U176C
class.label: Condition met
--
mutation.notation: C82G A120C A145C C150G C169G
class.label: Condition not met
--
mutation.notation: C82G A120C A145C C169G
class.label: Condition not met
--
mutation.notation: C82A A120U A145C C150U C169A U176A
class.label: Condition not met
--
mutation.notation: C82A A111G A145C C169A U176A
class.label: Condition met
